# target_of_assay: CPP32 (Homo sapiens, UniProt P42574)
# Sequence (P42574 29-175 limits assumed, species assumed): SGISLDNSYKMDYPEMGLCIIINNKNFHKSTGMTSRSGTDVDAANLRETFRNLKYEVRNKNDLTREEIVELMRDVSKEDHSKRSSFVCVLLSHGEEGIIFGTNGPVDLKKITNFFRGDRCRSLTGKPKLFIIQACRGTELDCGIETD
# Sequence (P42574 176-277 limits assumed, species assumed): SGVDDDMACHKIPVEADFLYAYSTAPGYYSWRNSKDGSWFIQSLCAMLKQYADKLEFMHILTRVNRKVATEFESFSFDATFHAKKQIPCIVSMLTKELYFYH
# test_protocol: Dissociation constant Ki and irreversible rate constant k3 for irreversible inhibitors (CPP32)
# Type: biochemical
# condition_description: continuous assay 60 min, reaction initiated by adding enzyme to substrate-inhibitor mixture
Label scheme for Ki: low class: < 50 nM; middle class: ≥ 50 nM and < 100 nM; high class: ≥ 100 nM

Kindly state the category for this compound: CC(C)[C@H](NC(=O)C(=O)Nc1c(F)c(F)nc(F)c1F)C(=O)N[C@@H](CC(=O)O)C(=O)COc1c(F)c(F)cc(F)c1F high class

Which of the defined bands does the recorded Ki of CC(C)[C@H](NC(=O)C(=O)Nc1ccccn1)C(=O)N[C@@H](CC(=O)O)C(=O)COc1c(F)c(F)cc(F)c1F sit within? high class

Which band does C[C@H](NC(=O)C(=O)Nc1cccc2c1CCCC2)C(=O)N[C@@H](CC(=O)O)C(=O)COc1c(F)c(F)cc(F)c1F fall in? high class

Record C[C@H](NC(=O)C(=O)Nc1ccccc1-c1ccccc1)C(=O)N[C@@H](CC(=O)O)C(=O)COc1ccccc1F — which class? high class

For CC(C)[C@H](NC(=O)C(=O)Nc1cccc2ccccc12)C(=O)N[C@@H](CC(=O)O)C(=O)COc1cccc2ccccc12 , which Ki bin applies? low class

Class label required: CC(C)[C@H](NC(=O)C(=O)Nc1cccc2ccccc12)C(=O)N[C@@H](CC(=O)O)C(=O)COC(=O)c1c(Cl)cccc1Cl low class

Looking at CC(C)[C@H](NC(=O)C(=O)NCCc1ccccc1)C(=O)N[C@@H](CC(=O)O)C(=O)COc1c(F)c(F)cc(F)c1F , which class would you pick? high class

Category lookup for the compound C[C@H](NC(=O)C(=O)Nc1ccccc1Cl)C(=O)N[C@@H](CC(=O)O)C(=O)COC(=O)c1c(Cl)cccc1Cl [Example 42] low class

Which bin, given its Ki, does C[C@H](NC(=O)C(=O)Nc1ccc(F)cc1)C(=O)N[C@@H](CC(=O)O)C(=O)COP(=O)(c1ccccc1)c1ccccc1 occupy? middle class

Each compound maps to one class by Ki. Which class for CCCCCCCc1ccc(NC(=O)C(=O)N[C@H](C(=O)N[C@@H](CC(=O)O)C(=O)COc2c(F)c(F)cc(F)c2F)C(C)C)cc1 ? high class

Sort C[C@H](NC(=O)C(=O)Nc1cc(C(F)(F)F)ccc1N1CCCC1)C(=O)N[C@@H](CC(=O)O)C(=O)COP(=O)(c1ccccc1)c1ccccc1 into one of the categories. middle class

Into which category would you place C[C@H](NC(=O)C(=O)NCc1cccc2ccccc12)C(=O)N[C@@H](CC(=O)O)C(=O)COP(=O)(c1ccccc1)c1ccccc1 ? low class

Class? Entry: C[C@H](NC(=O)C(=O)Nc1ccccc1Cl)C(=O)N[C@@H](CC(=O)O)C(=O)COP(=O)(c1ccccc1)c1ccccc1 [Example 57] low class

###

Kindly state CPP32 k3/Ki for each of the entries shown.
# target_of_assay: UniProtKB P42574
# test_protocol: Dissociation constant Ki and irreversible rate constant k3 for irreversible inhibitors (CPP32)
# Type: biochemical
# condition_description: continuous assay 60 min, reaction initiated by adding enzyme to substrate-inhibitor mixture

Reported UniProtKB P42574 CPP32 k3/Ki for item CC(C)[C@H](NC(=O)C(=O)Nc1ccccc1)C(=O)N[C@@H](CC(=O)O)C(=O)COc1c(F)c(F)cc(F)c1F was 36,000 moles^−1 seconds^−1

UniProtKB P42574 data for CC(C)[C@H](NC(=O)C(=O)Nc1ccccc1C(F)(F)F)C(=O)N[C@@H](CC(=O)O)C(=O)COc1c(F)c(F)cc(F)c1F ; its CPP32 k3/Ki: 57,400 moles^−1 seconds^−1

Lab note: molecule C[C@H](NC(=O)C(=O)Nc1ccccc1Cl)C(=O)N[C@@H](CC(=O)O)C(=O)COC(=O)c1c(Cl)cccc1Cl [Example 58] tested on UniProtKB P42574; recorded CPP32 k3/Ki was 323,000 moles^−1 seconds^−1

Measured values drawn from patent US7183260B2 for this set.
